Source listed as patent US20210107971A1.

Field: pKd. Provide a value for each of the binders that follow.
- experimentalSystem: purified recombinant human alpha synuclein fibrils (human, UniProt P37840 1-140)
- protocolNotes: SPR, Biacore T200, as in Example 3; full-length IgG4P injected
Give bare numbers, as −log10 of the molar value.

Below are worked cases with known answers.
6470gL3gH36 IgG4P (antibody, V domains shown, Full-length humanized human IgG4P; also called VR6470 gL3; VR6470) VH: EVQLLESGGGLVQPGGSLRLSCAVSGIDLSSHDMYWVRQAPGKGLEYIGAIYASGSTYYASWAKGRFTISRDSSKNTLYLQMNSLRAEDTAVYYCARIHYGNSGGLWGQGTLVTVSS VL: DIQMTQSPSSLSASVGDRVTITCQASQSVYKNNYLAWFQQKPGKAPKQLIYGASTLASGVPSRFSGSGSGTQFTLTISSLQPEDFATYYCAGYKGGRNDGFAFGGGTKVEIKR :: 9.53
VR6470 gL3; gH23-S56N-N102H (antibody, human IgG4 S228P, kappa, V domains shown, Full-length humanized human IgG4P) VH: EVQLLESGGGLVQPGGSLRLSCAVSGIDLSSHDMYWVRQAPGKGLEYIGAIYASGNTYYASWAKGRFTISRDNSKNTVYLQMNSLRAEDTAVYYCARIHYGHSGGLWGQGTLVTVSS VL: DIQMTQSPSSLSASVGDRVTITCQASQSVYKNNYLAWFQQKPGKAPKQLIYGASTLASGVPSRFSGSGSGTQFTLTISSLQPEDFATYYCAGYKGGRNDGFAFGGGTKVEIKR :: 10.17
VR6470 gL3-N33R; gH36-S56N-N102H (antibody, human IgG4 S228P, kappa, V domains shown, Full-length humanized human IgG4P) VH: EVQLLESGGGLVQPGGSLRLSCAVSGIDLSSHDMYWVRQAPGKGLEYIGAIYASGNTYYASWAKGRFTISRDSSKNTLYLQMNSLRAEDTAVYYCARIHYGHSGGLWGQGTLVTVSS VL: DIQMTQSPSSLSASVGDRVTITCQASQSVYKNRYLAWFQQKPGKAPKQLIYGASTLASGVPSRFSGSGSGTQFTLTISSLQPEDFATYYCAGYKGGRNDGFAFGGGTKVEIKR :: 10.28

Let us move to another entry and its pKd.
Ask: Indicate its recorded pKd; the binder in question is VR6470 gL3-N33R; gH23-S56N-N102H (antibody, human IgG4 S228P, kappa, V domains shown, Full-length humanized human IgG4P) VH: EVQLLESGGGLVQPGGSLRLSCAVSGIDLSSHDMYWVRQAPGKGLEYIGAIYASGNTYYASWAKGRFTISRDNSKNTVYLQMNSLRAEDTAVYYCARIHYGHSGGLWGQGTLVTVSS VL: DIQMTQSPSSLSASVGDRVTITCQASQSVYKNRYLAWFQQKPGKAPKQLIYGASTLASGVPSRFSGSGSGTQFTLTISSLQPEDFATYYCAGYKGGRNDGFAFGGGTKVEIKR
Result: 10.25
